Test system: HIF
testDetails: luciferase cell assay based on the HIF response elements (HRE), HeLa 9XHRE-LUC
Set-up: species or system human
details: Homo sapiens; cell assay based on the HIF response elements (Example 1), HeLa 9XHRE-LUC; read-out: IC50 HRE
From the text: In order to identify direct inhibitors of the activity of HIF, a stable recombinant line was first constructed from the cervical tumor line, known in scientific literature as HeLa, which contained the deoxyribonucleic acid (DNA) sequences of the region located between positions -985 and -951 of the human vascular endothelial growth factor (hVEGF), repeated nine times (9X) and fused to the luciferase reporter gene (LUC). […]
Kindly state IC50 for each of the entries shown.

[[record]]
chemicalstructure = "COC(=O)c1cccc(NC(=O)c2ccc(C(F)(F)F)cc2[N+](=O)[O-])c1"
quantitykind = "IC50"
observed = "> 1000 nM"


// batch mode: one IC50 value per listed entry
1. O=C(O)c1ccc(C(=O)COC(=O)c2cccc(NC(=O)c3ccc([N+](=O)[O-])cc3[N+](=O)[O-])c2)cc1
2. O=C(O)c1cccc(NC(=O)c2ccc(C(F)(F)F)cc2[N+](=O)[O-])c1
3. Cc1ccc(C(=O)COC(=O)c2cccc(NC(=O)c3ccc(C(F)(F)F)cc3C(F)(F)F)c2)cc1

1400 nM
> 1000 nM
300 nM
